Entry source: PubChem BioAssay AID1963873

# System: 276233-004-R-J1-PDC KRAS spheroids with HUVEC/MSC, viability
# Measurement notes: Anticancer human tumor 276233-004-R-J1-PDC patient-derived colon adenocarcinoma cell line growth inhibition [KRAS2]
# Assay setup: second compound 10 µM; first compound 0.316 µM; hits give low values
# Description: Multicellular complex tumor spheroid response to RAS pathway inhibitors in combination with a targeted agents in patient-derived cell lines with oncogenic KRAS variants from multiple cancer types A high-throughput screen of multi-cell type tumor spheroids was designed to identify active combinations of targeted small molecules and KRAS pathway inhibitors. […] Compounds. […] If the clinical Cmax for an agent had not been determined, the highest concentration tested was 10 microM. […]
Recorded metric: viability, T/C (%)

INSERT INTO assay_data (compound, endpoint_unit, measured_result) VALUES
  ('O=C(c1cc(Cc2n[nH]c(=O)c3ccccc23)ccc1F)N1CCN(C(=O)C2CC2)CC1 + C=CC(=O)N1CCN(c2nc(=O)n(-c3c(C)ccnc3C(C)C)c3nc(-c4c(O)cccc4F)c(F)cc23)C(C)C1', '%', 83.2),
  ('CC(C)NCC(C(=O)N1CCN(c2ncnc3c2C(C)CC3O)CC1)c1ccc(Cl)cc1 (stereo not given) + C=CC(=O)N1CCN(c2nc(=O)n(-c3c(C)ccnc3C(C)C)c3nc(-c4c(O)cccc4F)c(F)cc23)C(C)C1', '%', 58.9),
  ('CC1(C)CCC(CN2CCN(c3ccc(C(=O)NS(=O)(=O)c4ccc(NCC5CCOCC5)c([N+](=O)[O-])c4)c(Oc4cnc5[nH]ccc5c4)c3)CC2)=C(c2ccc(Cl)cc2)C1 + C=CC(=O)N1CCN(c2nc(=O)n(-c3c(C)ccnc3C(C)C)c3nc(-c4c(O)cccc4F)c(F)cc23)C(C)C1', '%', 69.3),
  ('CCN1CCN(Cc2ccc(Nc3ncc(F)c(-c4cc(F)c5nc(C)n(C(C)C)c5c4)n3)nc2)CC1 + CC1OCC2(CCN(c3cnc(Sc4ccnc(N)c4Cl)c(N)n3)CC2)C1N', '%', 64.6),
  ('COc1cc2nccc(Oc3ccc(NC(=O)C4(C(=O)Nc5ccc(F)cc5)CC4)cc3)c2cc1OC + C=CC(=O)N1CCN(c2nc(=O)n(-c3c(C)ccnc3C(C)C)c3nc(-c4c(O)cccc4F)c(F)cc23)C(C)C1', '%', 69.1);

----------
Readings of viability, T/C for the listed compounds
# System: 276233-004-R-J1-PDC KRAS spheroids with HUVEC/MSC, viability
# Measurement notes: Anticancer human tumor 276233-004-R-J1-PDC cell line growth inhibition [KRAS2];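 note: cells exposed to agents for seven days before viability read; 100% = DMSO vehicle control wells and lower values mean fewer viable cells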
# Assay setup: second compound 0.316 µM; first compound 1 µM; hits give low values
Recorded metric: viability, T/C (%)

INSERT INTO measurements (compound, endpoint_unit, measured_result) VALUES
  ('CC(=O)OC12COC1CC(O)C1(C)C(=O)C(O)C3=C(C)C(OC(=O)C(O)C(NC(=O)OC(C)(C)C)c4ccccc4)CC(O)(C(OC(=O)c4ccccc4)C21)C3(C)C (stereo not drawn) + CNCc1ccccc1-c1csc(C(C)Nc2nc(C)nc3cc(OC)c(OC)cc23)c1', '%', 93.8),
  ('CC(C)NCC(C(=O)N1CCN(c2ncnc3c2C(C)CC3O)CC1)c1ccc(Cl)cc1 (stereo not drawn) + C=CC(=O)N1CCN(c2nc(=O)n(-c3c(C)ccnc3C(C)C)c3nc(-c4c(O)cccc4F)c(F)cc23)C(C)C1', '%', 80),
  ('Cn1nccc1Nc1nccc(-c2cc3c(s2)C(C)(C)N(CCN2CCOCC2)C3=O)n1 + CNCc1ccccc1-c1csc(C(C)Nc2nc(C)nc3cc(OC)c(OC)cc23)c1', '%', 79.3);
